Data provenance: ChEMBL document CHEMBL3792372

assay: Selectivity index, ratio of CC50 for human RD cells to EC50 for Enterovirus 71; format: toxicity, cell-based; details: read-out: Ratio CC50/EC50
Give selectivity ratio for every item shown.
Please respond with just the number, no unit label.

Qu. What does the data say about its selectivity ratio? Entry: `OC[C@H]1O[C@@H](n2cnc3c(NCCOc4ccccc4)ncnc32)[C@H](O)[C@@H]1O`
Ans. 25

Qu. Repeat with OC[C@H]1O[C@@H](n2cnc3c(NCc4ccco4)ncnc32)[C@H](O)[C@@H]1O [KINETIN RIBOSIDE]
Ans. 5.6

Qu. Repeat with OC[C@H]1O[C@@H](n2cnc3c(NCc4ccccc4)ncnc32)[C@H](O)[C@@H]1O [N6-BENZYLADENOSINE]
Ans. 14

Qu. Repeat with c1ccc(CNc2ncnc3nc[nH]c23)cc1 [6-BENZYLAMINOPURINE]
Ans. 1300

Qu. Repeat with `OC[C@H]1O[C@@H](n2cnc3c(NCOCc4ccccc4)ncnc32)[C@H](O)[C@@H]1O`
Ans. 175

Qu. Repeat with `OC[C@H]1O[C@@H](n2cnc3c(NC/C=C/c4ccccc4)ncnc32)[C@H](O)[C@@H]1O`
Ans. 645

Qu. Repeat with `OC[C@H]1O[C@@H](n2cnc3c(NCCCc4ccccc4)ncnc32)[C@H](O)[C@@H]1O`
Ans. 105

Qu. Repeat with `OC[C@H]1O[C@@H](n2cnc3c(NCCc4ccccc4)ncnc32)[C@H](O)[C@@H]1O`
Ans. 123

Qu. Repeat with `OC[C@H]1O[C@@H](n2cnc3c(NCC#Cc4ccccc4)ncnc32)[C@H](O)[C@@H]1O`
Ans. 124

Qu. Repeat with `OC[C@H]1O[C@@H](n2cnc3c(OCc4ccccc4)ncnc32)[C@H](O)[C@@H]1O`
Ans. 37

Qu. Repeat with CC(C)=CCNc1ncnc2c1ncn2[C@@H]1O[C@H](CO)[C@@H](O)[C@H]1O [RIBOPRINE]
Ans. 5.8
